- EXPERIMENTAL TARGET: HLA-B*5401 (human)
- METHOD NOTES: competition vs 125I-labelled probe peptide, purified HLA, gel filtration
Flag rule - IC50 less than 30 nM flags TRUE; the remaining entries get FALSE.

BINDER: FPLPAARPA (9-mer analog of the HER2/neu peptide starting at position 1155) [Her2/neu.1155.F1]
GROUP LABEL: TRUE
--
BINDER: FPGKNGVI (8-mer analog of the HER2/neu peptide starting at position 1174) [Her2/neu.1174.F1I8]
GROUP LABEL: FALSE
--
BINDER: FPYDGIPAREI (11-mer B7 supermotif analog of the HER2/neu peptide starting at position 921) [Her2/neu.921.F1I11]
GROUP LABEL: TRUE
--
BINDER: FPRFRELVSEI (11-mer analog of the HER2/neu peptide starting at position 966) [Her2/neu.966.F1I11]
GROUP LABEL: TRUE
--
BINDER: FPREGPLPAI (10-mer analog of the HER2/neu peptide starting at position 1151) [Her2/neu.1151.F1I10]
GROUP LABEL: TRUE
--
BINDER: FPAARPAGATI (11-mer analog of the HER2/neu peptide starting at position 1157) [Her2/neu.1157.F1I11]
GROUP LABEL: FALSE
